# Assay: NCI Yeast Anticancer Drug Screen. Data for the sgs1 mgt1 strain (AID 161);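 note: 0% = growth of cultures given vehicle only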
# Assay context: S. cerevisiae sgs1 mgt1 strain, at 50.0 µM, stronger effect = higher value
Compounds without any hit were thinned out: in the full panel of roughly 79,000, 15% have a hit.
Recorded endpoint: growth inhibition (%)
Give bare numbers, in %.

Illustrative cases are given below, each with its answer.
Give reported growth inhibition value for CCCCCCCCC(O)C(O)CCCCCCCC(=O)OC (configuration not stated)
-4.55

Please indicate growth inhibition recorded for `CN(C)c1nc(N(C)C)n2c(-c3ccccc3[N+](=O)[O-])nnc2n1`
22

Provide growth inhibition value for the following compound: COC(=O)CC1C(OC)OC23CCC1C2(C)CCC1C3CCC2CC(OC(C)=O)CCC21C (configuration not stated)
13.8

Quote growth inhibition reported for O=C1c2ccccc2C(=O)c2c1ccc1c2N=C(c2ccc(Br)cc2)CC(c2cccc3ccccc23)N1 (configuration not stated) please.
17.9

Tell us which growth inhibition value is on record for CCC1CCC(OC(=O)Nc2cccc3ccccc23)CC1 (configuration not stated)
-5.35

Below is a list of compounds. For each, state its recorded growth inhibition.
1. O=CNCCc1ccc2c(c1)[nH]c1ccccc12
2. O=C1c2ccccc2C(=O)N1/N=[N+](\[O-])N1Cc2ccccc2C1

1: 12.9; 2: 24.1

Provide growth inhibition for all items below, preserving their order.
1. c1ccc(SCCc2ccncc2)cc1
2. CC1=CCC(=O)O1
3. O=P(Nc1ccc(Cl)cc1)(c1ccc(Cl)cc1)c1ccc(Cl)cc1
4. c1ccc2nc3ccccc3cc2c1
5. CC(Cc1ccco1)C(=O)O (configuration not stated)
6. O=c1[nH]c(CCCc2ccccc2)c(Br)c(=O)[nH]1

1. 29.7
2. -1.7
3. 4.05
4. 27.1
5. -0.3
6. 3.35

Please state growth inhibition for every compound in the list that follows.
1. CCOC1CN=C(Nc2cccc3ccccc23)S1 (configuration not stated)
2. Cc1cc(S(=O)(=O)Nc2nnc3c4ccccc4cnn23)c(S)cc1Cl
3. CCOC(=O)C1=C(Nc2ccc(F)cc2)C(=O)N(C(C)(C)C)C1
4. O=C(Nc1cccc(Cl)c1Cl)Oc1ccc(Cl)cc1C(=O)c1ccccc1
5. CCOc1ccc(NC(=S)NC=C(C(N)=O)C(N)=O)cc1
6. CS(=O)(=O)OCC1OC(n2ccc(NC(=O)c3ccccc3)nc2=O)CC1OS(C)(=O)=O (configuration not stated)
7. N#CCCBr
8. COC(=O)[C@H](Cc1ccc(OC(C)(C)C)cc1)N[C@H](C)C(=O)N[C@@H](Cc1ccccc1)C(=O)OCc1ccccc1

-27.9
-21
27.5
-17.1
-10.7
-5.8
7.45
50.1

Would you mind listing growth inhibition for each of the following compounds?
1. NC(=O)C1C2C=CC(O2)C1C(=O)O (configuration not stated)
2. CC(=O)Nc1cc(F)c(N=Nc2ccc(F)cc2)c(F)c1
3. Nc1ccc([N+](=O)[O-])cc1C(=O)Oc1ccccn1

-10.3
13.4
8.5

----------
# Assay: NCI Yeast Anticancer Drug Screen. Data for the cln2 rad14 strain (AID 165);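 note: 0% = growth equal to vehicle treated cultures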
# Assay context: S. cerevisiae cln2 rad14 strain, at 50.0 µM, stronger effect = higher value
This is part of a sample that, as a whole, favours compounds with a hit. Of some 79,000 tested, about 15% had one in any assay.
For each record, write down the corresponding growth inhibition.
Answers are plain numbers, in %.

Indicate its recorded growth inhibition; the compound in question is `CCCCOC(=O)c1cccc(C(=O)OCCCC)n1`
-5.6

Could I get growth inhibition for every one of these entries?
1. O=C(Nc1ccccn1)c1ccccc1
2. CCN1C2=NCCN2C(=O)c2ccccc21
3. CC1(C)Oc2ccc3ccccc3c2C(c2ccc(O)cc2)=C1c1ccccc1
4. CC(=O)OCC1OC(n2cnc3c(N)ncnc32)C(O)C1O (stereo unspecified)
5. c1ccc(Nc2cc(Nc3ccccc3)ncn2)cc1

11.6
15.1
7.75
-39.7
-6.5
